Origin of measurements: paper PMC7486940

Test: in vivo
Details: female, C57BL/6J, mouse, ip, 50 mg/kg, plasma concentration, Mean
readoutLabel: concentration at 1 h

chemsmiles=CCO[C@@H]1OC(=O)C[C@@H]1NC(=O)[C@@H]1CCCN1C(=O)[C@@H](NC(=O)c1ccc(N)c(Cl)c1)C(C)(C)C readoutlabel="concentration at 1 h" testvalue="1250 nM"

* * *

Assay: in vivo
Settings: female, C57BL/6J, mouse, ip, 50 mg/kg, plasma concentration, Mouse 2
readoutLabel: concentration at 1 h (µM)

chemsmiles=CCO[C@@H]1OC(=O)C[C@@H]1NC(=O)[C@@H]1CCCN1C(=O)[C@@H](NC(=O)c1ccc(N)c(Cl)c1)C(C)(C)C testvalue=1.63

* * *

Experiment: in vivo
Details: female, C57BL/6J, mouse, ip, 50 mg/kg, plasma concentration, Mouse 1
readoutLabel: concentration at 1 h (nM)

chemsmiles=CCO[C@@H]1OC(=O)C[C@@H]1NC(=O)[C@@H]1CCCN1C(=O)[C@@H](NC(=O)c1ccc(N)c(Cl)c1)C(C)(C)C readoutlabel="concentration at 1 h" unitslabel=nM testvalue=870

* * *

Assay: in vivo
Details: female, C57BL/6J, mouse, ip, 50 mg/kg, CSF concentration, Mouse 2
readoutLabel: concentration at 0.5 h (nM)

chemsmiles=CCO[C@@H]1OC(=O)C[C@@H]1NC(=O)[C@@H]1CCCN1C(=O)[C@@H](NC(=O)c1ccc(N)c(Cl)c1)C(C)(C)C readoutlabel="concentration at 0.5 h" unitslabel=nM testvalue=1170

* * *

Assay: in vivo
Conditions: female, C57BL/6J, mouse, ip, 50 mg/kg, plasma concentration, Mouse 1
readoutLabel: concentration at 6 h (nM)

molecule="CCO[C@@H]1OC(=O)C[C@@H]1NC(=O)[C@@H]1CCCN1C(=O)[C@@H](NC(=O)c1ccc(N)c(Cl)c1)C(C)(C)C [VX-765]" readoutlabel="concentration at 6 h" unitslabel=nM testvalue=430

* * *

Assay: VX-765 and VRT-043198 pharmacokinetics (LC-MS/MS) in plasma, whole brain and CSF after a single IP dose of VX-765
Settings: read-out: Cmax in CSF, Mouse 2; CSF; single IP 50 mg/kg VX-765
readoutLabel: Cmax (µM)

compound="CC(C)(C)[C@H](NC(=O)c1ccc(N)c(Cl)c1)C(=O)N1CCC[C@H]1C(=O)N[C@H](C=O)CC(=O)O [VRT-043198]" readoutlabel=Cmax testvalue=7

* * *

Assay: in vivo
Conditions: female, C57BL/6J, mouse, ip, 50 mg/kg, CSF concentration, Mouse 2
readoutLabel: concentration at 6 h

chemsmiles=CCO[C@@H]1OC(=O)C[C@@H]1NC(=O)[C@@H]1CCCN1C(=O)[C@@H](NC(=O)c1ccc(N)c(Cl)c1)C(C)(C)C readoutlabel="concentration at 6 h" testvalue="0.06 µM"

* * *

Experiment: in vivo
Settings: female, C57BL/6J, mouse, ip, 50 mg/kg, plasma concentration, Mouse 2
readoutLabel: concentration at 24 h (nM)

molecule="CCO[C@@H]1OC(=O)C[C@@H]1NC(=O)[C@@H]1CCCN1C(=O)[C@@H](NC(=O)c1ccc(N)c(Cl)c1)C(C)(C)C [VX-765]" testvalue=14

* * *

Test: in vivo
Conditions: female, C57BL/6J, mouse, ip, 50 mg/kg, brain concentration, Mean
readoutLabel: concentration at 0.25 h (nM)

chemsmiles=CCO[C@@H]1OC(=O)C[C@@H]1NC(=O)[C@@H]1CCCN1C(=O)[C@@H](NC(=O)c1ccc(N)c(Cl)c1)C(C)(C)C unitslabel=nM testvalue=160
